test_target: human ether-à-go-go-related gene (hERG) potassium channel (human);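 note: peak tail current of the secondary pulse compared with the same well before compound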
Sequence (Q12809 whole entry, looked up): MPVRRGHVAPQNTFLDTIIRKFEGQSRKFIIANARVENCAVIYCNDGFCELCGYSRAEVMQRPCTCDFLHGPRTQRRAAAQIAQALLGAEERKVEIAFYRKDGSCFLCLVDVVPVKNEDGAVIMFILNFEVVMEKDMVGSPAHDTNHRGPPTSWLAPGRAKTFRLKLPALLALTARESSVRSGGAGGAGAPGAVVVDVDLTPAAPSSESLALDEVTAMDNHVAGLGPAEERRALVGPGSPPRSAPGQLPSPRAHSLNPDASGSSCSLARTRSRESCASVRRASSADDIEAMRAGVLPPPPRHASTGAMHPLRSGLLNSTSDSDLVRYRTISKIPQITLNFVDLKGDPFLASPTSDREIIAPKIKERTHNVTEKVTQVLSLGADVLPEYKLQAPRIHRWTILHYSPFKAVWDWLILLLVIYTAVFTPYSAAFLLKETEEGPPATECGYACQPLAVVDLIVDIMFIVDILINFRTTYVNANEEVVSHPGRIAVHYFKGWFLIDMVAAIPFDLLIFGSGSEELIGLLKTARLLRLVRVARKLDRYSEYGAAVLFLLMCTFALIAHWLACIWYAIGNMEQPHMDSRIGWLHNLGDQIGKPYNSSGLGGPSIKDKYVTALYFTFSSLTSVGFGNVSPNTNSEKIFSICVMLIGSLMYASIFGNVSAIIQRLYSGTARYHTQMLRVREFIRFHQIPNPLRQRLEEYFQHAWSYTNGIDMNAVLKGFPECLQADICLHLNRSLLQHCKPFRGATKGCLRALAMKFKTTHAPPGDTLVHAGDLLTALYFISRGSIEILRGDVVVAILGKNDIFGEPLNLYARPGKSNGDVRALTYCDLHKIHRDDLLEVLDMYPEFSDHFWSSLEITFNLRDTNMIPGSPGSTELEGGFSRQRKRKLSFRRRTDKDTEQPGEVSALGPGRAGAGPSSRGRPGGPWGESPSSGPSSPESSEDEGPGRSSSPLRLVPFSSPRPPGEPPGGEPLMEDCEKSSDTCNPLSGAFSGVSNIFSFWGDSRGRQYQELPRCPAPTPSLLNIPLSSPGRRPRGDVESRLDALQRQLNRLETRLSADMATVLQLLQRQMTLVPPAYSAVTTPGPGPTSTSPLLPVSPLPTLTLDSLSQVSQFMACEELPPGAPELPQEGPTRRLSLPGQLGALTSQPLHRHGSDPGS
assay_procedure: primary screen, population patch clamp on CHO cells stably expressing hERG; higher = less effect of the substance
The campaign covered roughly 310,000 compounds. About 14,000 (4.5%) showed an effect of 50% or more. The effect is printed as a negative number. The list comes from a sample in which strong results are over-represented; it also holds close analogues and randomly drawn compounds.
reported_metric: hERG current change (%, negative = inhibition) at 10uM (%)
Numbers only, in %.

Please review the following examples before continuing.
• O=c1[nH]c(=O)n(CCC2=CCCCC2)c(O)c1C=NCCN1CCNCC1 = -11.7
• CCOC(=O)C1=C(c2ccc(O)cc2)NC(=O)NC1C (stereo not shown) = 9.47
• O=C(O)COc1cccc2nsnc12 = 4.42

Turning now to a further compound:
Which hERG current change (%, negative = inhibition) at 10uM value is on record for CCN(CC)CCCN=Cc1c(O)n(CCc2ccc(F)cc2)c(=O)[nH]c1=O ?
-56.1
